experimental.target: T1, recombinant human CD3 epsilon/delta heterodimer (human, UniProt P07766 23-126; P04234 22-105)
T1 construct: Recombinant protein in solution (200-50 nM) in the Octet assay; also called hCD3 E/D; human CD3E/D
T1 sequence (P07766 23-126, stated change not applied, chain 1 of 2): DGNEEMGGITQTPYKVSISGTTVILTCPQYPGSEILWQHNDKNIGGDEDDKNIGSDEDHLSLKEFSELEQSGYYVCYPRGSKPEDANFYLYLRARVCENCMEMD
T1 sequence (P04234 22-105, stated change not applied, chain 2 of 2): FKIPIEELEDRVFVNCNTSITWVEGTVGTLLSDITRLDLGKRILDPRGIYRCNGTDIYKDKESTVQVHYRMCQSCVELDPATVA
test.description: Octet BLI, mAb on FAB2G sensor, hCD3 E/D 200-50 nM; R^2 0.98;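 note: antibodies purified from hybridoma supernatants, measured by Octet binding to recombinant human CD3 protein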
Known koff of a selection of binders
Give the value, in units of s⁻¹, as a plain number.

[[record]]
binder = "ABL-CD3-52 (antibody, V domains shown, Chimeric hybridoma mAb: human V, CH1, upper hinge; mouse middle hinge, CH2, CH3) VH: EVQLVESGGGLVKPGGSLRLSCAASGFTFSYYSMNWVRQAPGKGLEWVSSISRSTTYIYYADSVKGRFTISRDNAKNSLYLQMNSLRAEDTAVYYCARDGKGAIFLDYWGQGTLVTVSS VL: SYELTQPPSVSVSPGQTARITCSGDALPKKYAYWYQQKSGQAPVLVIYEDSKRPSGIPERFSGSSSGTMATLTISGAQVEDEADYYCYSTDSSGNHRVFGGGTKLTVL"
unit_info = "s⁻¹"
endpoint_result = 0.0202

[[record]]
binder = "ABL-CD3-44 (antibody, V domains shown, Chimeric hybridoma mAb: human V, CH1, upper hinge; mouse middle hinge, CH2, CH3) VH: EVQLVESGGGLVQPGGSLRLSCAASGFTFSTYWMSWVRQAPGKGLEWVANIKQDGSEKYYVDSVKGRFTISRDNAKNSLYLQMNSLRAEDTAVYYCATGSFDYWGQGTLVTVSS VL: QPVLTQPSSHSASSGASVRLTCMLSSGFSVGDFWIRWYQQKPGNPPRYLLFYHSDSNKGQGSGVPSRFSGSNDASANAGILRISGLQPEDEADYYCGTWHSNSKTWVFGGGTKLTVL"
unit_info = "s⁻¹"
endpoint_result = 0.000184


Moving on to another binder below.
**Query** What koff value was documented for this binder, ABL-CD3-57 (antibody, V domains shown, Chimeric hybridoma mAb: human V, CH1, upper hinge; mouse middle hinge, CH2, CH3) VH: EVQLVESGGGLVKPGGSLRLSCAASGFTFSSYTMNWVRQAPGKGLEWVSSISTSSRYIYYTDSVKGRFTISRDDAKNSLYLQMNSLRAEDTAVYYCTRNWGYDVFDIWGQGTMVIVSS VL: QPVLTQPSSHSASSGASVRLTCMLSSGFSVGDFWIRWYQQKPGNPPRYLLYYHSDSNKGQGSGVPSRFSGSNDASANAGILRISGLQPEDEADYYCGTWHSNSKTQVFGGGTKLTVL ?
**Result** 0.000277
